Molecular target: Sodium-dependent serotonin transporter (Rattus norvegicus)
Sequence (P31652 whole entry): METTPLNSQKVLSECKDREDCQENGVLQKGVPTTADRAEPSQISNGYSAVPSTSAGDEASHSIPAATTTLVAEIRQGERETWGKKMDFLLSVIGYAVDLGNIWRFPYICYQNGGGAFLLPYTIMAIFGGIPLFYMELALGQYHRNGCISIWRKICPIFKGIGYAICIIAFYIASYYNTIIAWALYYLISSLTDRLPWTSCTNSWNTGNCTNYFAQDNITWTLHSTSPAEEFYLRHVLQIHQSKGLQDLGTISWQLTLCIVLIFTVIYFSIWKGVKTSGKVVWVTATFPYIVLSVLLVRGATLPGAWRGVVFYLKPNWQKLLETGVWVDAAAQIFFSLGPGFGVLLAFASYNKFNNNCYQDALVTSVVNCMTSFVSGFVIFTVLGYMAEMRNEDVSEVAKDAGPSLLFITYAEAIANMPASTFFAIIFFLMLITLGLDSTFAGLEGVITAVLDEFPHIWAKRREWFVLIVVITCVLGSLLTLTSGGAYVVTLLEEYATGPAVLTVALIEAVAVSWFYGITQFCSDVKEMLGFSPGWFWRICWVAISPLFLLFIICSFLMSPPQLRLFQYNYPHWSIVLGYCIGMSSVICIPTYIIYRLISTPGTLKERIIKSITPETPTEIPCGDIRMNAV
Assay: Inhibition of [3H]5-HT uptake at 5HT transporter in Wistar rat synaptosomes
# Y = IC50 below 200 nM (exclusive); N = IC50 at/above 200 nM

INSERT INTO measurements (structure, grouplabel) VALUES
  ('CCN(CC)C(=O)[C@@]1(c2ccc3ccccc3c2)C[C@H]1CN', 'Y'),
  ('CCN(CC)C(=O)[C@@]1(c2ccsc2)C[C@H]1CN', 'Y'),
  ('CCN(CC)C(=O)[C@@]1(c2cccc3ccccc23)C[C@H]1CN', 'N'),
  ('CCN(CC)C(=O)[C@@]1(c2ccc(Cl)c(Cl)c2)C[C@H]1CN', 'N'),
  ('CCN(CC)C(=O)[C@@]1(c2ccc(Cl)cc2)C[C@H]1CN', 'N'),
  ('CCN(CC)C(=O)[C@@]1(c2cccc(Cl)c2)C[C@H]1CN', 'Y'),
  ('CCN(CC)C(=O)[C@]1(c2ccc(Cl)cc2)C[C@@H]1CN', 'Y'),
  ('CCN(CC)C(=O)[C@]1(c2ccc(Cl)c(Cl)c2)C[C@@H]1CN', 'Y'),
  ('CCN(CC)C(=O)[C@]1(c2ccc(OC)cc2)C[C@@H]1CN', 'N'),
  ('CCN(CC)C(=O)[C@]1(c2cccc(Cl)c2)C[C@@H]1CN', 'Y'),
  ('CCN(CC)C(=O)[C@]1(c2ccsc2)C[C@@H]1CN', 'N'),
  ('CCN(CC)C(=O)[C@@]1(c2ccc(OC)cc2)C[C@H]1CN', 'N'),
  ('CCN(CC)C(=O)[C@]1(c2ccc3ccccc3c2)C[C@@H]1CN', 'Y'),
  ('CCN(CC)C(=O)[C@]1(c2ccc(F)cc2)C[C@@H]1CN', 'N'),
  ('CCN(CC)C(=O)[C@]1(c2cccc3ccccc23)C[C@@H]1CN', 'N'),
  ('CCN(CC)C(=O)[C@@]1(c2ccc(F)cc2)C[C@H]1CN', 'N');
